Overview of recorded DC50 for various compounds
- system name: SHP2 protein (Homo sapiens, UniProt Q06124)
- Sequence (Q06124 whole entry): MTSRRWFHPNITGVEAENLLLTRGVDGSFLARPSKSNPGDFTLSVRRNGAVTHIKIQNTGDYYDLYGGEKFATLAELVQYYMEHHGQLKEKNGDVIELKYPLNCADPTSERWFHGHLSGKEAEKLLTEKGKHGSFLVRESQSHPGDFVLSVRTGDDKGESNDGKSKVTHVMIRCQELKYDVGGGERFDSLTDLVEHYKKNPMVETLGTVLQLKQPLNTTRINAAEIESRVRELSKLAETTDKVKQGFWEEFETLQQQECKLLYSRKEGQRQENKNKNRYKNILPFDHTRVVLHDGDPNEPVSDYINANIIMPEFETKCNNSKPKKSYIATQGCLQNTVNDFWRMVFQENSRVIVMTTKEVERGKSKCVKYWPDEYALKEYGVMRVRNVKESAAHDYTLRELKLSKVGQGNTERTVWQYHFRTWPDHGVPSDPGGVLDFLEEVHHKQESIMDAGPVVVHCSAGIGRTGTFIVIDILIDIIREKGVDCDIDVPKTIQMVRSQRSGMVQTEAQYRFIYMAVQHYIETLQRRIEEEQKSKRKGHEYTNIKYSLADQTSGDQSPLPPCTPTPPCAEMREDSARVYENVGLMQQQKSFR
- assay text: Degradation activity on SHP2 protein in MV-411 cells (Western blot, DC50)
- Format: cell-based
- Parameters: endogenous in cells
- run parameters: MV411 cells, 24 hours, read-out: Degradation activity for differenct cell lines MV411 (DC50)

Solved entries (count: 10):
{"columns": ["compound", "DC50"],
 "data": [
  ["CC1(N)CCN(c2cnc(Sc3cccc(NC(=O)CCCCCCCCCCCCC(=O)NCc4ccc5c(c4)CN(C4CCC(=O)NC4=O)C5=O)c3)cn2)CC1 (centres unmarked) [Compound 41]", "> 1000 nM"],
  ["CC1(N)CCN(c2cnc(Sc3cccc(NC(=O)CCCCCCCN4CC5(CCN(c6ccc(COc7cccc8c7CN(C7CCC(=O)NC7=O)C8=O)nn6)C5)C4)c3)cn2)CC1 (centres unmarked) [Compound 107]", "< 100 nM"],
  ["Cc1ncsc1-c1ccc([C@H](C)NC(=O)[C@@H]2C[C@@H](O)CN2C(=O)[C@@H](NC(=O)c2cnc(N3CCC4(CN(CCCCC(=O)Nc5cccc(Sc6cnc(N7CCC(C)(N)CC7)cn6)c5)C4)C3)nc2)C(C)(C)C)cc1 [Compound 88]", "< 100 nM"],
  ["CC1(N)CCN(c2cnc(Sc3cccc(NC(=O)CCCCCCN4CC5(CCN(c6ncc(C(=O)NCc7ccc8c(c7)CN(C7CCC(=O)NC7=O)C8=O)cc6C(F)(F)F)C5)C4)c3)cn2)CC1 (centres unmarked) [Compound 170]", "< 100 nM"],
  ["CC1(N)CCN(c2cnc(Sc3cccc(NC(=O)CCCCCCCOC4CCN(c5ccc(C(=O)NCc6ccc7c(c6)CN(C6CCC(=O)NC6=O)C7=O)nn5)CC4F)c3)cn2)CC1 (centres unmarked) [Compound 146]", "< 100 nM"],
  ["CC1(N)CCN(c2cnc(Sc3cccc(NC(=O)COCCCCCN4CC5(CCN(c6ccc(C(=O)NCc7ccc8c(c7)CN(C7CCC(=O)NC7=O)C8=O)nn6)C5)C4)c3)cn2)CC1 (centres unmarked) [Compound 124]", "< 100 nM"],
  ["CC1(CN)CCN(c2cnc(Sc3ccc(NC(=O)COCCOCC(=O)Nc4ccc5c(c4)C(=O)N(C4CCC(=O)NC4=O)C5)cc3Cl)cn2)CC1 (centres unmarked) [Compound 8]", "> 1000 nM"],
  ["NC1(CO)CCN(c2cnc(Sc3cccc(NC(=O)CCCCCC=C4CC5(CCN(c6ccc(C(=O)NCc7ccc8c(c7)CN(C7CCC(=O)NC7=O)C8=O)nn6)CC5)C4)c3)cn2)CC1 (centres unmarked) [Compound 210]", "< 100 nM"],
  ["Cc1ncsc1-c1ccc([C@H](C)NC(=O)[C@@H]2C[C@@H](O)CN2C(=O)[C@@H](NC(=O)c2ccc(N3CC4CCC(C3)N4CCCCCCCCC(=O)Nc3cccc(Sc4cnc(N5CCC(C)(N)CC5)cn4)c3)nn2)C(C)(C)C)cc1 [Compound 118]", "100 to 1000 nM"],
  ["CC1(N)CCN(c2cnc(Sc3cccc(NC(=O)CCCCCCOC4CN(c5ncc(C(=O)NCc6ccc7c(c6)CN(C6CCC(=O)NC6=O)C7=O)cn5)C4)c3)cn2)CC1 (centres unmarked) [Compound 87]", "< 100 nM"]
]}

Asked: Which DC50 value is on record for CC1(N)CCN(c2cnc(Sc3cccc(NC(=O)CCCCCCCCN4C5CCC4CN(c4ccc(C(=O)NCc6ccc7c(c6)CN(C6CCC(=O)NC6=O)C7=O)nn4)C5)c3)cn2)CC1 (centres unmarked) [Compound 119] ?
Given back: < 100 nM

Asked: Also need CC1(N)CCN(c2cnc(Sc3cccc(NC(=O)CCCCCCN4CC5(CCN(c6ccc(C(=O)NCc7ccc8c(c7)CN(C7CCC(=O)NC7=O)C8=O)nc6)C5)C4)c3)cn2)CC1 (centres unmarked) [Compound 186] , thanks.
Given back: < 100 nM

Asked: Also need C[C@@H]1OCC2(CCN(c3cnc(Sc4cccc(NC(=O)CCN5CC6(CCN(c7ccc(C(=O)NCc8ccc9c(c8)CN(C8CCC(=O)NC8=O)C9=O)nn7)C6)C5)c4)cn3)CC2)[C@@H]1N (some centres unmarked) [Compound 108] , thanks.
Given back: < 100 nM

Asked: Also need CC1(N)CCN(c2cnc(Sc3cccc(NC(=O)CCCN4CCN(c5ncc(C(=O)NCc6ccc7c(c6)CN(C6CCC(=O)NC6=O)C7=O)cn5)CC4)c3)cn2)CC1 (centres unmarked) [Compound 83] , thanks.
Given back: > 1000 nM

Asked: Also need CC1(N)CCN(c2cnc(Sc3ccc(NC(=O)CCCCCCCCOC4CN(c5ncc(C(=O)NCc6ccc7c(c6)CN(C6CCC(=O)NC6=O)C7=O)cn5)C4)cc3)cn2)CC1 (centres unmarked) [Compound 74] , thanks.
Given back: < 100 nM

The values you see were collected from patent US20240383908A1.
